Sequence of the target: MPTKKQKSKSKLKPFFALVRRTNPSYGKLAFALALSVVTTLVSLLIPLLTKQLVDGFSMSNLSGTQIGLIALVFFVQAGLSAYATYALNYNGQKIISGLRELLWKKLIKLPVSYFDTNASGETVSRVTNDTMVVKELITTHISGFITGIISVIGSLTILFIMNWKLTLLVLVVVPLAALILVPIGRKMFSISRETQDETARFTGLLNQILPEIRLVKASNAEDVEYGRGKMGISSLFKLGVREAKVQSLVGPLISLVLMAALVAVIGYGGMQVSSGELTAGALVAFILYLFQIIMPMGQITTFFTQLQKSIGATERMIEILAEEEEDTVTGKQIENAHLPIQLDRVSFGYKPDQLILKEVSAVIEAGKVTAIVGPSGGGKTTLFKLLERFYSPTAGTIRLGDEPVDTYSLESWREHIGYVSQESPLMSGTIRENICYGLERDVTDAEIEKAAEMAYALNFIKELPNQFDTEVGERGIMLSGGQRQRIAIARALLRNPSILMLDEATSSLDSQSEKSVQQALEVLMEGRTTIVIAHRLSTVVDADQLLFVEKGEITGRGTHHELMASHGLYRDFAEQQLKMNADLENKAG
Readout type: Kd (µM)
Kindly answer with a numeric value in µM, unit omitted.

Inquiry: Quickly give me recorded Kd for `CC/N=c1\cc2oc3cc(NCC)c(C)cc3c(-c3ccccc3C(=O)OCC)c-2cc1C`
Reply text: 4.8

FYI, the data here is from paper PMC8791611.
